Test system: MCF7 breast cancer cells
experimentNotes: Cancer cell survival (CellTiter-Glo), MCF7
Type: cell-based
conditionsUsed: 32 μM, 72 h, Table 5.2
experimentalEndpoint: Cell survival at given concentration
Give only the figure.

Could you share which Cell survival at given concentration value was measured for CC(O)CCO (stereo not shown) ?
1.02

What about this compound? CC(O)CC(=O)O (stereo not drawn) [beta-hydroxybutyrate]
1.01

What about this compound? CCCCC(=O)O [valerate]
0.97

What about this compound? CC(=O)O [acetate]
1.03

* * *

Tested on: HCT 116 colorectal cancer cells
experimentNotes: Cancer cell survival (CellTiter-Glo), HCT 116
Type: cell-based
conditionsUsed: HCT 116 cells; 72 h; Table 6.2
experimentalEndpoint: IC50 (mM)
Write the number in mM without appending the unit.

Record lookup: for HCT 116 colorectal cancer cells, what IC50 belongs to CCCCC(=O)O [valerate] ?
4.07

* * *

Test system: A-431 skin cancer cells
experimentNotes: Cancer cell survival (CellTiter-Glo), A-431
Assay type: cell-based
conditionsUsed: Homo sapiens; A-431 cells; 32 μM; 72 h; read-out: Cell survival at given concentration
Procedure: The cells were prepared as follows. Cells were harvested during logarithmic growth, counted, and adjusted to 4.44×10^4 cells/mL with culture media. 90 μL of suspended cells were added to wells of 96-well plates for a final cell count of 4×10^3 cells/well. […] The test compounds were assayed as follows. […] Plates were incubated at room temperature for 20 min and then each well's luminescence was measured. The surviving percentage of cells was determined as: […]
Record form. Attribute: viability at 32 µM. Fill in for each entry.
Write the number in % without appending the unit.

Could you share which viability at 32 µM value was measured for Oc1cc(O)c2c(c1)O[C@H](c1cc(O)c(O)c(O)c1)[C@H](O)C2 [EGC, epigallocatechin] ?
96

What about this molecule? O=c1cc(-c2ccc(O)c(O)c2)oc2cc(O)cc(O)c12 [luteolin]
61

What about this molecule? O=c1cc(-c2ccc(O)cc2)oc2cc(O)cc(O)c12 [apigenin]
83

What about this molecule? Oc1ccc(C=Cc2cc(O)cc(O)c2)cc1 [resveratrol]
87

What about this molecule? O=C[C@H](O)[C@@H](O)[C@@H](O)CO [L-arabinose]
105

What about this molecule? O=c1c(O)c(-c2cc(O)c(O)c(O)c2)oc2cc(O)cc(O)c12 [myricetin]
96

* * *

System: MCF7 breast cancer cells
experimentNotes: Cancer cell survival (CellTiter-Glo), MCF7
Format: cell-based
conditionsUsed: 1 mM, 72 h
experimentalEndpoint: Cell survival at given concentration
Give only the figure.

Could you share which Cell survival at given concentration value was measured for CC(O)CC(=O)O (stereo not drawn) [beta-hydroxybutyrate] ?
0.97

What about this compound? CC(O)CCO (stereo not shown) [butanediol]
1.00

What about this compound? CC(=O)O [acetate]
0.99

What about this compound? CCCCC(=O)O [valerate]
0.94

* * *

Tested on: PC-3 prostate cancer cells
experimentNotes: Cancer cell survival (CellTiter-Glo), PC-3
Format: cell-based
conditionsUsed: PC-3 cells; 100 μM; 72 h; Table 8.2
experimentalEndpoint: Cell survival at given concentration
Give only the figure.

Record lookup: for PC-3 prostate cancer cells, what Cell survival at given concentration belongs to CCCCC(=O)O [valerate] ?
1.04

What about this compound? CC(=O)O [acetate]
1.07

What about this compound? CC(O)CCO (stereo not shown) [butanediol]
1.00

What about this compound? CC(O)CC(=O)O (stereo not drawn) [beta-hydroxybutyrate]
1.03

* * *

Test system: HCT 116 colorectal cancer cells
experimentNotes: Cancer cell survival (CellTiter-Glo), HCT 116
Assay type: cell-based
conditionsUsed: HCT 116 cells; 100 μM; 72 h; Table 6.2
Record form. Attribute: Cell survival at given concentration. Fill in for each entry.
Give only the figure.

Could you share which Cell survival at given concentration value was measured for CCCCC(=O)O [valerate] ?
1.01

What about this compound? CC(O)CC(=O)O (stereo not drawn) [beta-hydroxybutyrate]
1.00

What about this compound? CC(=O)O [acetate]
1.06

What about this compound? CC(O)CCO (stereo not shown)
1.00

* * *

System: T24 bladder cancer cells
experimentNotes: Cancer cell survival (CellTiter-Glo), T24
Type: cell-based
conditionsUsed: Homo sapiens, T-24, 3 μM, 72 h, read-out: Cell survival at given concentration
experimentalEndpoint: viability at 3 µM (%)
Write the number in % without appending the unit.

Could you share which viability at 3 µM value was measured for O=c1c(O)c(-c2cc(O)c(O)c(O)c2)oc2cc(O)cc(O)c12 [myricetin] ?
102

What about this compound? O=c1cc(-c2ccc(O)cc2)oc2cc(O)cc(O)c12 [apigenin]
105

What about this compound? O=c1cc(-c2ccc(O)c(O)c2)oc2cc(O)cc(O)c12 [luteolin]
94

What about this compound? O=C[C@H](O)[C@@H](O)[C@@H](O)CO [L-arabinose]
103

What about this compound? Oc1cc(O)c2c(c1)O[C@H](c1cc(O)c(O)c(O)c1)[C@H](O)C2 [EGC, epigallocatechin]
101

What about this compound? Oc1ccc(C=Cc2cc(O)cc(O)c2)cc1 [resveratrol]
101

* * *

Test system: T24 bladder cancer cells
experimentNotes: Cancer cell survival (CellTiter-Glo), T24
Format: cell-based
conditionsUsed: 1 μM, 72 h, Table 3.2
Procedure: The cells were prepared as follows. Cells were harvested during logarithmic growth, counted, and adjusted to 4.44×10^4 cells/mL with culture media. 90 μL of suspended cells were added to wells of 96-well plates for a final cell count of 4×10^3 cells/well. […] The test compounds were assayed as follows. […] Plates were incubated at room temperature for 20 min and then each well's luminescence was measured. The surviving percentage of cells was determined as: […]
experimentalEndpoint: Cell survival at given concentration

Record lookup: for T24 bladder cancer cells, what Cell survival at given concentration belongs to CC(O)CCO (stereo not shown) ?
1.02

What about this compound? CC(O)CC(=O)O (stereo not drawn) [beta-hydroxybutyrate]
0.97

What about this compound? CCCCC(=O)O [valerate]
1.00

What about this compound? CC(=O)O [acetate]
0.97

* * *

Test system: Daudi lymphoma cancer cells
experimentNotes: Cancer cell survival (CellTiter-Glo), Daudi
Assay type: cell-based
conditionsUsed: 72 h, Table 4.2
experimentalEndpoint: IC50 (µM)
Write the number in µM without appending the unit.

Record lookup: for Daudi lymphoma cancer cells, what IC50 belongs to CCCCC(=O)O [valerate] ?
2300

* * *

Record form. Attribute: viability at 0.318 µM. Fill in for each entry.
Tested on: HCT 116 colorectal cancer cells
experimentNotes: Cancer cell survival (CellTiter-Glo), HCT 116
Type: cell-based
conditionsUsed: Homo sapiens; HCT 116 cells; 318 nM; 72 h; read-out: Cell survival at given concentration
Write the number in % without appending the unit.

Could you share which viability at 0.318 µM value was measured for O=c1cc(-c2ccc(O)cc2)oc2cc(O)cc(O)c12 ?
100

What about this compound? O=c1c(O)c(-c2cc(O)c(O)c(O)c2)oc2cc(O)cc(O)c12
104

What about this compound? Oc1ccc(C=Cc2cc(O)cc(O)c2)cc1
98

What about this compound? O=C[C@H](O)[C@@H](O)[C@@H](O)CO
101

What about this compound? O=c1cc(-c2ccc(O)c(O)c2)oc2cc(O)cc(O)c12
98

What about this compound? Oc1cc(O)c2c(c1)O[C@H](c1cc(O)c(O)c(O)c1)[C@H](O)C2 [EGC, epigallocatechin]
98

* * *

Record form. Attribute: viability at 316 µM. Fill in for each entry.
System: HCT 116 colorectal cancer cells
experimentNotes: Cancer cell survival (CellTiter-Glo), HCT 116
Type: cell-based
conditionsUsed: Homo sapiens; HCT 116 cells; 316 μM; 72 h; read-out: Cell survival at given concentration
Write the number in % without appending the unit.

Could you share which viability at 316 µM value was measured for O=C[C@H](O)[C@@H](O)[C@@H](O)CO [L-arabinose] ?
102

What about this compound? O=c1cc(-c2ccc(O)c(O)c2)oc2cc(O)cc(O)c12 [luteolin]
6

What about this compound? Oc1cc(O)c2c(c1)O[C@H](c1cc(O)c(O)c(O)c1)[C@H](O)C2 [EGC, epigallocatechin]
0

What about this compound? O=c1cc(-c2ccc(O)cc2)oc2cc(O)cc(O)c12 [apigenin]
19

What about this compound? O=c1c(O)c(-c2cc(O)c(O)c(O)c2)oc2cc(O)cc(O)c12 [myricetin]
0

What about this compound? Oc1ccc(C=Cc2cc(O)cc(O)c2)cc1 [resveratrol]
0

* * *

Test system: HCT 116 colorectal cancer cells
experimentNotes: Cancer cell survival (CellTiter-Glo), HCT 116
Type: cell-based
conditionsUsed: Homo sapiens; HCT 116 cells; 1000 μM; 72 h; read-out: Cell survival at given concentration
Record form. Attribute: viability at 1000 µM. Fill in for each entry.
Write the number in % without appending the unit.

Could you share which viability at 1000 µM value was measured for O=C[C@H](O)[C@@H](O)[C@@H](O)CO ?
99

What about this molecule? Oc1ccc(C=Cc2cc(O)cc(O)c2)cc1
0

What about this molecule? O=c1cc(-c2ccc(O)c(O)c2)oc2cc(O)cc(O)c12
1

What about this molecule? Oc1cc(O)c2c(c1)O[C@H](c1cc(O)c(O)c(O)c1)[C@H](O)C2 [EGC, epigallocatechin]
0

What about this molecule? O=c1cc(-c2ccc(O)cc2)oc2cc(O)cc(O)c12
15

What about this molecule? O=c1c(O)c(-c2cc(O)c(O)c(O)c2)oc2cc(O)cc(O)c12
0
